- System: tetA promoter (PtetA)-lacZ reporter in E. coli KM3
- Assay type: cell-based
- Measurement context: Table 4; anhydrotetracycline 0.4 μM; 48 hrs at 30° C.
With a cut-off of 0.1, any relative β-galactosidase activity, inducer atc strictly below it is called condition met; any relative β-galactosidase activity, inducer atc meeting it or above is called condition not met.

1) L1-31: library L1 hit, sulfonylurea-responsive TetR(B) variant (protein, Sulfonylurea responsive repressor L1-31) MGSRLDKSKVINSALELLNEVGIEGLTTRKLAQKLGVEQPTLYWHVKNKRALLDALAIEMLDRHATHFCPLEGESWQDFLRNNAKSMRCALLSHRDGAKVMLGTRATEKQYETVENRLAFLCQQGFSLENALYAVRAVHWFTLGCVLIDQEMQVAKEERETPTTDSMPPLLRQAYELYDHQGAEPAFLFGLELIICGLEKQLKCESGS    condition not met
2) L1-44: library L1 hit, sulfonylurea-responsive TetR(B) variant, SEQ ID NO: 13 (protein, Sulfonylurea responsive repressor L1-44) MGSRLDKSKVINSALELLNEVGIEGLTTRKLAQKLGVEQPTLYWHVKNKRALLDALAIEMLDRHATHFCPLEGESWQDFLRNNAKSYRCALLSHRDGAKVYLGTAVTEKQYETAENQLAFLCQQGFSLENALYAVKAVAGFTLGCVLWDQESQVAKEERETPTTASMPPLLRQAVELADHQGAEPAFLFGLELIICGLEKQLKCESGS    condition not met
3) L1-2: library L1 hit, sulfonylurea-responsive TetR(B) variant, SEQ ID NO: 3 (protein, Sulfonylurea responsive repressor L1-02) MGSRLDKSKVINSALELLNEVGIEGLTTRKLAQKLGVEQPTLYWHVKNKRALLDALAIEMLDRHATHFCPLEGESWQDFLRNNAKSFRCALLSHRDGAKVCLGTAVTEKQYETMENILAFLCQQGFSLENALYARRAVIAFTLGCVLWDQEYQVAKEERETPTTDSMPPLLRQARELIDHQGAEPAFLFGLELIICGLEKQLKCESGS    condition not met
4) L1-28: library L1 hit, sulfonylurea-responsive TetR(B) variant (protein, Sulfonylurea responsive repressor L1-28) MGSRLDKSKVINSALELLNEVGIEGLTTRKLAQKLGVEQPTLYWHVKNKRALLDALAIEMLDRHATHFCPLEGESWQDFLRNNAKSMRCALLSHRDGAKVWLGTAWTEKQYETPENVLAFLCQQGFSLENALYASRAVVTFTLGCVLTDQEKQVAKEERETPTTDSMPPLLRQAWELLDHQGAEPAFLFGLELIICGLEKQLKCESGS    condition met
5) L1-22: library L1 hit, sulfonylurea-responsive TetR(B) variant, SEQ ID NO: 7 (protein, Sulfornylurea responsive repressor L1-22) MGSRLDKSKVINSALELLNEVGIEGLTTRKLAQKLGVEQPTLYWHVKNKRALLDALAIEMMDRHHTHFCPLEGESWQDFLRNTAKSYRCALLSHRDGAKVCLGTAITEKQYETKENNLAFLCQQGFSLENALYARQAVRVFTLGCVLFDQEMQVAKEERETPTTDSMPPLLRQASELLDHQGAEPAFLFGLELIICGLEKQLKSESGS    condition met
6) L1-7: library L1 hit, sulfonylurea-responsive TetR(B) variant, SEQ ID NO: 4 (protein, Sulfonylurea responsive repressor L1-07) MGSRLDKSKVINSALELLNEVGIEGLTTRKLAQKLGVEQPTLYWHVKNKRALLDALAIEMLDRHNTHFCPLEGESWQDFLRNNAKSWRCALLSHRDGAKVVLGTAITEKQYETHENPLAFLCQQGFSLENALYAIAAVRRFTLGCVLVDQERQVAKEERETPTTDSMPPLLRQASELQDHQGAEPAFLFGLELIICGLEKQLKCERGS    condition met

Let us examine a further case.
[Q] In plain terms, does L1-20: library L1 hit, sulfonylurea-responsive TetR(B) variant, SEQ ID NO: 6 (protein, Sulfonylurea responsive repressor L1-20) MGSRLDKSKVINSALELLNEVGIEGLTTRKLAQKLGVEQPTLYWHVKNKRALLDALAIEMMDRHQTHFCPLEGESWQDFLRNNAKSMRCALLSHRDGAKVFLGTAWTEKQYETVENLLAFLCQQGFSLENALYALNAVATFTLGCVLWDQEKQVAKEERETPTTDSMPPLLRQAHELGDHQGAEPAFLFGLELIICGLEKQLKSESGS come in under 0.1 for relative β-galactosidase activity, inducer atc?
[A] condition not met

Source: patent US8580556B2
